# Tested on: Caco-2
# PROCEDURE_DETAILS: cell viability relative to DMSO; higher = less toxic
# TEST_SETTINGS: 72 h; 100 nM
Provide the recorded cell viability for the entries that follow.
Entry rule: numbers only, all in %.

Record request: cell viability value, item CNCCc1ccc(O)c(O)c1 [deoxyepinephrine]
106

How about "COc1ccc(CCc2nc3cc(-c4c(C)noc4C)ccc3n2C[C@H](C)N2CCOCC2)cc1Cl" ?
106

How about "C1COC(NC(C2CC2)C2CC2)=N1" ?
103

How about "COCCOc1ccc(N2CCN(CCn3ncc4c3nc(N)n3nc(-c5ccco5)nc43)CC2)cc1" ?
98.1

How about "COc1cccc(-n2nc(C(=O)O)cc2-c2ccc(C3CCCCC3)c(Cl)c2)c1" ?
96.4

How about "Cc1cc(CN2CCN(c3c(Br)cnc4nc(-c5ccc(N6CCN(C)CC6)cc5)[nH]c34)CC2)no1" ?
99.7

How about "O=S(=O)(c1cccc2cnccc12)N1CCNCC1" ?
105

How about "N#Cc1ccc(C(c2ccc(C#N)cc2)n2cncn2)cc1" ?
96.2

How about "OC(c1ccccc1)(c1ccccc1)C12CC[N+](CCOCc3ccccc3)(CC1)CC2" ?
94.1

How about "COc1cc(N2CCC(O)CC2)ccc1Nc1cc(Nc2ccccc2S(=O)(=O)C(C)C)c2cc[nH]c2n1" ?
97.4

----------
# Tested on: HepG2
# PROCEDURE_DETAILS: cell viability relative to DMSO; higher = less toxic
# TEST_SETTINGS: 72 h; 100 nM
RESULT_TYPE: cell viability (%)
Entry rule: numbers only, all in %.

Record request: cell viability value, item "NC1=N[C@@](c2cccc(-c3cncnc3)c2)(c2ccnc(C(F)F)c2)c2cccc(F)c21"
106

How about "Oc1cccc(-c2c3nc(c(-c4cccc(O)c4)c4ccc([nH]4)c(-c4cccc(O)c4)c4nc(c(-c5cccc(O)c5)c5ccc2[nH]5)CC4)C=C3)c1" ?
103

How about CCC(N)C(O)c1ccc(O)c(O)c1 (configuration not stated) [ethylnorepinephrine] ?
98.7

How about Cc1ncc(C[n+]2csc(CCOP(=O)(O)OP(=O)(O)O)c2C)c(N)n1 [thiamine-pyrophosphate] ?
97.4

How about "O=C(Nc1cc(-c2ccccc2)nn1-c1ccccc1F)c1ccc([N+](=O)[O-])cc1" ?
104

How about "CC(C)c1nc(CN(C)C(=O)N[C@H](C(=O)N[C@@H](Cc2ccccc2)C[C@H](O)[C@H](Cc2ccccc2)NC(=O)OCc2cncs2)C(C)C)cs1" ?
97.2

How about "CC(C)(CO)c1cc2cc(NC(=O)C3(c4ccc5c(c4)OC(F)(F)O5)CC3)c(F)cc2n1C[C@@H](O)CO" ?
94.1

How about "CC(C)c1ccc2c(c1)CC[C@H]1[C@](C)(CN)CCC[C@]21C" ?
92.3

How about CC(=O)/N=c1/sc(S(N)(=O)=O)nn1C [methazolamide] ?
101

How about "CCc1nn(CCO)c(CC)c1Oc1cc(C#N)cc(C#N)c1" ?
94.7

How about C[C@]12C=CC(=O)C=C1CC[C@@H]1[C@@H]2[C@@H](O)C[C@@]2(C)[C@H]1CC[C@]2(O)C(=O)COP(=O)(O)O [prednisolone-sodium-phosphate] ?
104

How about CN1CCCC(n2nc(Cc3ccc(Cl)cc3)c3ccccc3c2=O)CC1 (configuration not stated) ?
101

How about "OCCN1CCN(CC/C=C2/c3ccccc3Sc3ccc(C(F)(F)F)cc32)CC1" ?
90

How about "Cl/C(=C\n1cncn1)c1ccc(Cl)cc1Cl" ?
104

How about "CN(Cc1cc(Br)cc(Br)c1N)C1CCCCC1" ?
107

How about "O=S(=O)(c1cccc2cnccc12)N1CCNCC1" ?
95

How about "OCc1ccc(-c2ccc(-c3ccc(CO)s3)o2)s1" ?
88.3

----------
# Test system: Calu-3
# PROCEDURE_DETAILS: cell viability relative to DMSO; higher = less toxic
# TEST_SETTINGS: 72 h; 10 nM
RESULT_TYPE: cell viability (%)
Entry rule: numbers only, all in %.

Record request: cell viability value, item "COc1cc(O)c2c(c1)C(=O)c1cc(C)cc(O)c1C2=O"
104

How about "COCCOc1ccc(N2CCN(CCn3ncc4c3nc(N)n3nc(-c5ccco5)nc43)CC2)cc1" ?
112

How about NS(=O)(=O)c1ccc(C(=O)O)cc1 [carzenide] ?
101

How about "COc1ccc(-c2cnc3c(-c4cccc5ncccc45)cnn3c2)cc1" ?
101

How about "CC(=O)Nc1ccc(C(=O)Nc2ccccc2N)cc1" ?
99.8

How about "C[C@H](C[C@H](N)C(=O)O)C(=O)O" ?
88.4

How about "NC(=O)c1cccc2cn(-c3ccc([C@@H]4CCCNC4)cc3)nc12" ?
104

How about "COc1c(C)cnc(Cn2cc(C#CCC(C)(C)O)c3c(Cl)nc(N)nc32)c1C" ?
108

How about CN1CCCC(n2nc(Cc3ccc(Cl)cc3)c3ccccc3c2=O)CC1 (centres undefined) ?
96.7

----------
# Test system: Caco-2
# PROCEDURE_DETAILS: cell viability relative to DMSO; higher = less toxic
# TEST_SETTINGS: 72 h; 10 nM
RESULT_TYPE: cell viability (%)
Entry rule: numbers only, all in %.

Record request: cell viability value, item NS(=O)(=O)c1cc(C2(O)NC(=O)c3ccccc32)ccc1Cl (stereo not drawn)
84.5

How about "c1ccc(-c2ccc(CNc3nc(-c4ccccn4)nnc3-c3ccccc3)cc2)cc1" ?
98.2

How about "CCCCC1(COC(=O)CCC(=O)O)C(=O)N(c2ccccc2)N(c2ccccc2)C1=O" ?
104

How about "C#C[C@]1(O)CC[C@H]2[C@@H]3CCC4=CC(=O)CC[C@]4(C)[C@H]3CC[C@@]21C" ?
103

How about "c1ccc(N2CCN(CCCOc3ccc4c(c3)OCO4)CC2)cc1" ?
102

How about "Nc1ccn([C@H]2CC[C@@H](CO)O2)c(=O)n1" ?
99.2

How about "CCCCN1[C@@H]2CC[C@H]1C[C@@H](OC(c1ccc(F)cc1)c1ccc(F)cc1)C2" ?
98.3

How about CC1(C)C[C@@H]1C(=O)N/C(=C\CCCCSC[C@H](N)C(=O)O)C(=O)O [Cilastatin Sodium] ?
107

----------
# Tested on: U2OS
# PROCEDURE_DETAILS: cell viability relative to DMSO; higher = less toxic
# TEST_SETTINGS: 72 h; 1 nM
Provide the recorded cell viability for the entries that follow.
Entry rule: numbers only, all in %.

Record request: cell viability value, item c1ccc2c(c1)Sc1ccccc1N2C[C@H]1CN2CCC1CC2 [levomequitazine]
97.6

How about CN1[C@@H]2CC[C@H]1C[C@@H](OC1c3ccccc3CCc3ccccc31)C2 [deptropine] ?
101

How about O=C(O)CCc1cc(I)c(Oc2ccc(O)cc2)c(I)c1 [diiodothyropropionic-acid] ?
96.2

How about CCn1c(=O)c2c(nc(/C=C/c3ccc(OC)c(OC)c3)n2C)n(CC)c1=O [istradefylline] ?
102

How about Cc1sc2c(c1C)C(c1ccc(Cl)cc1)=N[C@@H](CC(=O)Nc1ccc(OCCOCCOCCOCCNc3cccc4c3C(=O)N(C3CCC(=O)NC3=O)C4=O)cc1)c1nnc(C)n1-2 (stereo partly drawn) [ARV-825] ?
95.4

How about "O=C(Nc1ccncc1)c1cc([N+](=O)[O-])ccc1Cl" ?
99.5

How about CN1CCN(c2cc3c(cc2F)c(=O)c(C(=O)O)cn3-c2ccc(F)cc2)CC1 [difloxacin] ?
92

How about Cc1c(O)c(=O)ccn1C [deferiprone] ?
96.5

----------
Provide the recorded cell viability for the entries that follow.
# System: U2OS
# PROCEDURE_DETAILS: cell viability relative to DMSO; higher = less toxic
# TEST_SETTINGS: 72 h; 1000 nM
Entry rule: numbers only, all in %.

Record request: cell viability value, item C[C@]12CC[C@@H]3c4ccc(O)cc4CC[C@H]3[C@@H]1C[C@@H](O)[C@@H]2O [estriol]
101

How about NC(=O)Cc1cccc(C(=O)c2ccccc2)c1N [nepafenac] ?
98.8

How about COCCOc1ccc(N2CCN(CCn3ncc4c3nc(N)n3nc(-c5ccco5)nc43)CC2)cc1 [preladenant] ?
95.1

How about NC(=O)Nc1cc(-c2cccc(F)c2)sc1C(=O)N[C@H]1CCCNC1 [AZD7762] ?
6.1

How about CN(C)CCNc1nc2cc(O)ccc2c2c1C(=O)c1ccccc1-2 [TAS-103] ?
49.5

How about NC(=O)NCCN1CCN(c2cccc(C(F)(F)F)c2)CC1 [fluprazine] ?
101

How about CC(C)c1nc(CN(C)C(=O)N[C@H](C(=O)N[C@@H](Cc2ccccc2)C[C@H](O)[C@H](Cc2ccccc2)NC(=O)OCc2cncs2)C(C)C)cs1 [Ritonavir] ?
99.2

How about CCc1nn(CCO)c(CC)c1Oc1cc(C#N)cc(C#N)c1 [lersivirine] ?
102

How about "CCNC(=O)c1n[nH]c(-c2cc(Cl)c(O)cc2O)c1-c1ccc(OC)cc1" ?
78.7

How about CCOC(=O)C1=C(C)NC(c2ccccc2)=C(C(=O)OCc2ccc([N+](=O)[O-])cc2)[C@@H]1C#Cc1ccccc1 [MRS-1334] ?
101

How about "N#Cc1cc(CN2CCC(Nc3ncnc4sc(Cl)cc34)CC2)ccc1F" ?
103

How about CCOC(=O)c1ccc(N)cc1 [benzocaine] ?
99.6

How about CCCCC[C@H](O)/C=C/[C@H]1[C@H](O)CC(=O)[C@@H]1C/C=C\CCCC(=O)O [dinoprostone] ?
98.5

How about Nc1ccc(S(=O)(=O)Nc2ccc(Cl)nn2)cc1 [sulfachlorpyridazine] ?
102

How about O=C(Nc1ccccc1)N1CCC(Cc2cnc3ccccc3c2)CC1 [PF-750] ?
96.5

How about CCOC(=O)[C@H](CCc1ccccc1)N[C@@H](C)C(=O)N1Cc2cc(OC)c(OC)cc2C[C@H]1C(=O)O [moexipril] ?
100

How about C=CCSCC1Nc2cc(Cl)c(S(N)(=O)=O)cc2S(=O)(=O)N1 (stereo not drawn) [althiazide] ?
96.9

How about CC1(C)CC(=O)c2c(C(F)(F)F)nn(-c3ccc(C(N)=O)c(N[C@H]4CC[C@H](O)CC4)c3)c2C1 [SNX-2112] ?
2.7

How about O=C(O)/C=C/c1ccc(Cn2ccnc2)cc1 [ozagrel] ?
99.7

How about O=C(Cc1ccccc1)Nc1nc2ccc(Cl)cc2c2nc(-c3ccco3)nn12 [MRS-1220] ?
104

How about Cc1cc([C@@H](C)Nc2ccccc2C(=O)O)c2nc(N3CCOCC3)cc(=O)n2c1 [AZD6482] ?
99.8

How about CNCCc1ccc(O)c(O)c1 [deoxyepinephrine] ?
101

How about Cc1c(N)nc([C@H](CC(N)=O)NC[C@H](N)C(N)=O)nc1C(=O)N[C@H](C(=O)N[C@H](C)[C@@H](O)[C@H](C)C(=O)N[C@H](C(=O)NCCc1nc(-c2nc(C(=O)NCCC[S+](C)C)cs2)cs1)[C@@H](C)O)[C@@H](OC1OC(CO)C(O)C(O)C1OC1OC(CO)C(O)C(OC(N)=O)C1O)c1cnc[nH]1 (stereo partly drawn) [bleomycin] ?
88.4

How about C#CCC(Cc1cnc2nc(N)nc(N)c2n1)c1ccc(C(=O)N[C@@H](CCC(=O)O)C(=O)O)cc1 (stereo partly drawn) [pralatrexate] ?
90

How about CC[C@H]1OC(=O)[C@@](C)(F)C(=O)[C@H](C)[C@@H](O[C@@H]2O[C@H](C)C[C@H](N(C)C)[C@H]2O)[C@](C)(OC)C[C@@H](C)C(=O)[C@H](C)[C@H]2N(CCCCn3cc(-c4cccc(N)c4)nn3)C(=O)O[C@]12C [solithromycin] ?
103

How about CC[N+](C)(CC)CCC[n+]1c(-c2ccccc2)c2cc(N)ccc2c2ccc(N)cc21 [propidium-iodide] ?
99.8

How about CC(=O)O[C@H]1C[C@@H]2CC[C@@H]3[C@H](CC[C@@]4(C)[C@H]3C[C@H](N3CC[N+](C)(C)CC3)[C@@H]4OC(C)=O)[C@@]2(C)C[C@@H]1N1CC[N+](C)(C)CC1 [pipecuronium] ?
105

How about CCN1C[C@]2(COC(=O)c3ccccc3N3C(=O)C[C@H](C)C3=O)CC[C@H](OC)[C@@]34[C@@H]5C[C@H]6[C@H](OC)[C@@H]5[C@](O)(C[C@@H]6OC)[C@](O)([C@@H](OC)[C@H]23)[C@@H]14 [methyllycaconitine] ?
96.3

The reported measurements were obtained from the supplement of paper PMC13380429.
